Documented EC50 across a set of compounds
Tested on: phosphorylated c-Jun (serine-73)
Experiment: Phosphorylated c-JUN (A-beta), SH-SY5Y
Assay type: cell-based
Conditions: Homo sapiens, Amyloid Beta peptide 30 uM, 3 hours, read-out: p-cJun Abeta SH-SY5Y (EC50 in μM)

# count of solved cases: 4
CC(C)Nc1nccc(-c2c(C(C)C)nn3ccccc23)n1
> 30 µM
CC(C)CNc1nccc(-c2c(C(C)C)nn3ccccc23)n1
> 30 µM
CC(C)c1nn2ccccc2c1-c1ccnc(NC2CCCC2)n1
> 10 µM
CC(C)Cc1nn2ccccc2c1-c1ccnc(NC2CCCC2)n1
> 30 µM

Please look at the following compound next.
Name the recorded EC50 of the compound listed here: CCCNc1nccc(-c2c(C(C)C)nn3ccccc23)n1
> 30 µM

----------
Target: recombinant human phosphodiesterase 10A1 enzyme (Homo sapiens, UniProt Q9Y233)
Construct: purchased BPS Biosciences; host or cells: Baculovirus infected Sf9 cells
Sequence (Q9Y233 1-779 isoform Q9Y233-1): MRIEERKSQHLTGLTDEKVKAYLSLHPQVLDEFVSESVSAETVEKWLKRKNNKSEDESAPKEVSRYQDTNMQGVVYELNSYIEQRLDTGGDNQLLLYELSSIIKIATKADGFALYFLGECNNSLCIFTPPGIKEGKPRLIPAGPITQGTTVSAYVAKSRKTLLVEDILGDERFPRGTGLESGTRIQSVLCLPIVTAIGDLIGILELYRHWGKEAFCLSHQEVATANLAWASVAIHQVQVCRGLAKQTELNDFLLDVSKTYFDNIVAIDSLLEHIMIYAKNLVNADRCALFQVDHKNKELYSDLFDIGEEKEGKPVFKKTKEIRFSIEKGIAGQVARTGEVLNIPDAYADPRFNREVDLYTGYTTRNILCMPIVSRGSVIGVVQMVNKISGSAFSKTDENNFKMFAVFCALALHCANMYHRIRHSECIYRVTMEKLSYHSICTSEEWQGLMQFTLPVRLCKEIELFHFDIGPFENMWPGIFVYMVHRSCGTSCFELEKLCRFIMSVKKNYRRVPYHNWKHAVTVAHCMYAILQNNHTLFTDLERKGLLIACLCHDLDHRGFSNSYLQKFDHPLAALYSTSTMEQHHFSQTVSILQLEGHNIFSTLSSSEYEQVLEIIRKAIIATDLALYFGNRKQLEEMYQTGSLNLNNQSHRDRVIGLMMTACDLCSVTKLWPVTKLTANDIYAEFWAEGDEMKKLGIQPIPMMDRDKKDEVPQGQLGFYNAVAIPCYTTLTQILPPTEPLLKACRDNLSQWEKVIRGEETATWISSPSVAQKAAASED
Test: PDE10 inhibition assay (PDELight)
Format: biochemical
Settings: 1 uM cAMP; read-out: PDE 10 Inhibition (IC50 in μM)
Method: In a 96-well plate, recombinant human phosphodiesterase 10A1 enzyme (10 U/well) expressed in Baculovirus infected Sf9 cells (BPS Biosciences) was combined with 1 uM cAMP substrate (Sigma). […] Using a PDELight® kit (Cambrex), the amount of AMP produced in the reaction from the hydrolysis of cAMP was quantified using PDELight AMP Detection Reagent which converts the AMP directly to ATP. […] The luminescence was read on a Victor Light 1420 luminometer. […]
Readout Name: IC50 (µM)

CC(C)c1nn2ccccc2c1-c1ccnc(NC2CC2)n1
16.8
Fc1cccc(-c2nn3ccccc3c2-c2ccnc(NC3CCCC3)n2)c1
53.5
CC(C)Nc1cc(-c2c(C(C)C)nn3ccccc23)ccn1
13
CC(C)c1nn2ccccc2c1-c1ccnc(NC2CCCC2)n1
3
CC(C)c1nn2ccccc2c1-c1ccnc(NCCCN2CCN(C)CC2)n1
19

[A] CC(C)c1nn2ccccc2c1-c1ccnc(NC2CCC2)n1
[B] Cc1cccc2c(-c3ccnc(NC4CCCC4)n3)cnn12
// compare: A vs B , metric IC50, want the smaller Answer with the label corresponding to your selection.
A
(A: 20 µM, B: 32 µM)

----------
Biological target: catalytic domain of phosphodiesterase 4B enzyme cloned from human brain (Homo sapiens)
Construct: the catalytic domain of phosphodiesterase 4B enzyme; purchased Scottish Biomedical
Sequence (Q07343 330-659 limits assumed): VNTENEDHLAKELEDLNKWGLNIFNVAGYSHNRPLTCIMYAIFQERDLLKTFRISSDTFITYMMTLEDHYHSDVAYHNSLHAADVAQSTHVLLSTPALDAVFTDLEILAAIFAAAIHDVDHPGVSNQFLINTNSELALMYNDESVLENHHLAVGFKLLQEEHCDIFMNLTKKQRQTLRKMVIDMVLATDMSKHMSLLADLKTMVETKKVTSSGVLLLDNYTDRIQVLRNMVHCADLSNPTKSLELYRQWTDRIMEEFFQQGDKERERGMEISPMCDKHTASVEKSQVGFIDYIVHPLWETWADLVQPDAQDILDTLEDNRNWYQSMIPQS
Assay: PDE4 inhibition assay (PDELight)
Format: biochemical
Details: 5 uM cAMP; read-out: PDE 4 Inhibition (IC50 in μM)
Readout Name: IC50 (µM)

# count of solved cases: 3
CC(C)c1nn2ccccc2c1-c1ccnc(NC2CCC2)n1
8.6
CCCCc1nn2ccccc2c1-c1ccnc(NC(C)C)n1
7.9
Clc1cccc(-c2nn3ccccc3c2-c2ccnc(NC3CCCC3)n2)c1
5.2

[1] CCCNc1nccc(-c2c(C(C)C)nn3ccccc23)n1
[2] Cc1nn2ccccc2c1-c1ccnc(NC2CCCC2)n1
// compare: 1 vs 2 , metric IC50, want the smaller Answer with the label corresponding to your selection.
2

----------
System: phosphorylated c-Jun (serine-73)
Experiment: Phosphorylated c-JUN (6-OHDA), SH-SY5Y
Assay type: cell-based
Conditions: Homo sapiens, 50 uM 6-hydroxydopamine, 1.5 hours, read-out: p-cJun 6-OHDA SH-SY5Y (EC50 in μM)
Readout Name: EC50

# count of solved cases: 2
CC(C)CNc1nccc(-c2c(C(C)C)nn3ccccc23)n1
> 30 µM
Fc1cccc(-c2nn3ccccc3c2-c2ccnc(NC3CCCC3)n2)c1
> 30 µM

Please look at the following compound next.
Name the recorded EC50 of the compound listed here: CC(C)C(=O)c1c(C(C)C)nn2ccccc12 [AV411, reference compound]
> 30 µM
